Target: T1, human CXCR4 (human, UniProt P61073 1-352)
T1 construct: also called CXCR4 receptor; C-X-C chemokine receptor type 4
T1 sequence (P61073 whole entry): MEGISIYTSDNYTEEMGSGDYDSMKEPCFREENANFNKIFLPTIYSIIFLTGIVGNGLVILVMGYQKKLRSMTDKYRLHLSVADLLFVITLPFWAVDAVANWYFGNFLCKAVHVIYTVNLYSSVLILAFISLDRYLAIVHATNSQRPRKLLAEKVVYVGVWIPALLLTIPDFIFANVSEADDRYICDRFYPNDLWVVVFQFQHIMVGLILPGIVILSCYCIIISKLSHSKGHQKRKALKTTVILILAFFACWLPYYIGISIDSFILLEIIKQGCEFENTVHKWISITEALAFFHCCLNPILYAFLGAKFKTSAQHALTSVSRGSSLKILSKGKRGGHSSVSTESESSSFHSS
Assay: FMAT, hybridoma supernatant on HEK293T cells transiently overexpressing full-length human CXCR4
Procedure: Supernatants collected from harvested cells were tested to assess the ability of the secreted antibodies to bind to HEK293T cells transiently overexpressing either full-length human, murine or cynomolgus monkey CXCR4. […] The product of number of positive events and fluorescence intensity was used as a measure of binding strength.
endpoint name: FL1 x count
Write the value as a bare number.

The following binders have reported results that may help.
6C7 (antibody, V domains shown, Fully human monoclonal antibody from XenoMouse hybridoma; also called antibody 6C7; mAb 6C7) VH: QVQLVESGGGVVQPGRSLRLSCAASGFTFSNYVMHWVRQAPGKGLEWVAVIWYDGSNKYYADSVKGRFTISRDNSKNTLSLQMNSLRAEDTAVYYCERGEGYYGSGSRYRGYYYGMDVWGQGTTVTVSS VL: DIQMTQSPSSLSASVGDRVTITCRASQGIRTDLGWYQQKPGKAPKRLIYAASSLQSGVPSRFSGSGSGTEFTLTISSLQPEDFATYYCLQHNSYPRTFGQGTKVEIK : 1.59e+06
5C9 (antibody, V domains shown, Fully human monoclonal antibody from XenoMouse hybridoma (lambda light chain)) VH: QVQLVESGGGVVQPGRSLRLSCAASGFTFSSYGLHWVRQSPGKGLEWVAVISYDGSKKYYADSVKGRFSISRDNSKNTLYLQMNSLRAEDTAVYYCARDRPSRYSSCMDVWGQGTTVTVSS VL: QSALTQPASVSGSPGQSITISCTGTSSDVGSNNFVSWYQQHPGKAPKLMIYEVSKRPSGVSNRFSGSKSGNTASLTISGLQAEDEADYYCCSYAGSNTLVFGGGTKLTVL : 2.05e+06

Prompt: Given 2A4 (antibody, V domains shown, Fully human monoclonal antibody from XenoMouse hybridoma; also called mAb 2A4; Mab2A4) VH: QVQLVESGGGVVQPGRSLRLSCAASGFTFSSYGMHWVRQAPGKGLEWVAVISYDGSNKYYADSVKGRFTISRDNSKNTLYLQMNSLRAEDTAVYYCTRGGLAARRNYYYSYGTDVWGQGTTVTVSS VL: DIQMTQSPSSLSASVGDRVTITCRASQDIRNDLGWYQQKPGKAPTRLIYAASSLQSGVPSRFSGSGSGTQFTLTISSLQPEDFATYYCLQHNSYPLTFGGGTKVQIK , state its recorded FL1 x count.
Completion: 745000
